Biological target: hCB1 (Homo sapiens, UniProt P21554)
Sequence (P21554 whole entry): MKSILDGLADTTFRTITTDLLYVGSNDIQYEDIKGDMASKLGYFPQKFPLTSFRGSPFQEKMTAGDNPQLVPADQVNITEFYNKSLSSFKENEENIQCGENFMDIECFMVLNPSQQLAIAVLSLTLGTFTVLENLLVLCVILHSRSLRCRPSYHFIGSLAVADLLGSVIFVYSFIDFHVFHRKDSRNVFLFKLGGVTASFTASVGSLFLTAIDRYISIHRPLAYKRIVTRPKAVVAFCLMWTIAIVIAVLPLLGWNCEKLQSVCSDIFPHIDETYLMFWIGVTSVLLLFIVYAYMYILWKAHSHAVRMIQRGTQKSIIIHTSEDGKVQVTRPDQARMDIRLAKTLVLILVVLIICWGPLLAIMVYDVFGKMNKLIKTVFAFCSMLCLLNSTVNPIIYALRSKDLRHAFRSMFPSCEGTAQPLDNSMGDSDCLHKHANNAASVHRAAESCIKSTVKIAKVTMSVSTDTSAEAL
Experiment: bioSens-All ebBRET effector biosensor signaling profiling, HEK293
Assay type: cell-based
Design: host or cells: HEK293 (HEK293SL clone), transient
Conditions: hCB1 Gz EC50 [95% CI]
Measured EC50 values are reported for all entries that follow.
Report only the number, with the unit nM understood.

Worked examples, 5 molecules total:
Measured EC50, COC(=O)[C@@H]1[C@@H]2CCC[C@@H]2CN1C(=O)c1cc(C)n(-c2cccc(Cl)c2)n1 [‘10010] : 1400

Measured EC50, COC(=O)C(NC(=O)c1cc(C)n(-c2cccc(F)c2)n1)c1cccs1 (centres unmarked) [‘51486] : 1120

Measured EC50, Cc1cc(C(=O)NC(c2ccccc2)c2ccco2)nn1-c1cccc(C(F)(F)F)c1 (centres unmarked) [‘1081] : 225

Measured EC50, Cc1cc(C(=O)N2CC3(CCC3)[C@H]2[C@@H]2CCCO2)nn1-c1cccc(C(F)(F)F)c1 [‘3737a] : 2470

Measured EC50, Cc1cc(C(=O)N2CC3(CCC3)[C@H]2[C@H]2CCCO2)nn1-c1cccc(C(F)(F)F)c1 [‘3737b] : 30800

More entries:
Measured EC50, Cc1cc(C(=O)NC(c2ccco2)c2ccco2)nn1-c1cccc(C(F)(F)F)c1 [‘1090] : 126

Measured EC50, COC(=O)[C@@H]1[C@@H]2CCC[C@@H]2CN1C(=O)c1cc(C)n(-c2cccc(C(F)(F)F)c2)n1 [‘6439] : 339

Measured EC50, CC(=O)C(c1cccs1)N(C)C(=O)c1cc(C)n(-c2cccc(C(F)(F)F)c2)n1 (centres unmarked) [‘6829] : 1350
